- TEST_TARGET: DP receptor (Homo sapiens, UniProt Q13258)
- Construct: the human cell line LS174T, which expresses the endogenous DP receptor; endogenous in cells
- EXPERIMENTAL_PROTOCOL: SPA cAMP assay in human LS174 T cells (human DP functional assay)
- CONDITION_DESCRIPTION: inhibition of PGD2 (15 nM final) stimulated cAMP, LS174T cells expressing endogenous DP receptor
Structures can show the parent of a compound that is named as a salt.
Would you mind telling me the reported log10(IC50) of each entry?
All values: base-10 log of IC50 in nM.

Please state log10(IC50) for every molecule in the list that follows.
1. COc1ccc(CCNc2cc(-c3ccccc3NS(C)(=O)=O)nc(OC)n2)cc1
2. COc1ccc(CCNc2cc(-c3cccc(S(N)(=O)=O)c3)nc(OC)n2)cc1
3. COc1ccc(CCNc2cc(-c3ccc(C(C)=O)cc3)nc(OC)n2)cc1
4. COc1ccc(CCNc2cc(-c3cccc(Cc4nnn[nH]4)c3)nc(OC)n2)cc1 [Example 24(b), hydrochloride]
5. COc1nc(NCCc2ccc(C(F)(F)F)cc2F)cc(-c2cccc(CCNC(C)=O)c2)n1 [Example 65, hydrochloride]
6. COc1nc(NCCc2ccc(OC)c(OC)c2)cc(-c2ccco2)n1
7. COc1nc(NCCc2ccc(OC(F)(F)F)cc2)cc(-c2ccc3c(c2)CC(C(=O)O)O3)n1 (centres unmarked) [Example 88, hydrochloride]

A)
1. 0.30
2. 0.46
3. 0.80
4. -1.00
5. 1.57
6. 2.41
7. 0.49

Q) Please give the documented log10(IC50) of COc1cccc(-c2cc(NCCc3c[nH]c4cc(OC)ccc34)nc(OC)n2)c1 [Example 43(g), hydrochloride]
A) 2.02

====

- TEST_TARGET: DP receptor (Homo sapiens, UniProt Q13258)
- Construct: the human cell line LS174T, which expresses the endogenous DP receptor; endogenous in cells
- Sequence (Q13258 1-359): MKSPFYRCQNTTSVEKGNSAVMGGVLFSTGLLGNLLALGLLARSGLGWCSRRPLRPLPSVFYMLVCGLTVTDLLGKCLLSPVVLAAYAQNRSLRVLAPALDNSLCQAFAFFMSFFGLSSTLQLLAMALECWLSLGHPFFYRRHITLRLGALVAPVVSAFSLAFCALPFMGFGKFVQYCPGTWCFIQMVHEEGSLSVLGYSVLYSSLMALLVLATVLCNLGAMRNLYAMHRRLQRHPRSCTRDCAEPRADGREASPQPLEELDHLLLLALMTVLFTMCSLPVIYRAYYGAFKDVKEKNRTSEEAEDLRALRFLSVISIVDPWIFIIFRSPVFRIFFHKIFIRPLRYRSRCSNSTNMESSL
- EXPERIMENTAL_PROTOCOL: SPA cAMP assay in human LS174 T cells (human DP functional assay)
- CONDITION_DESCRIPTION: inhibition of PGD2 (15 nM final) stimulated cAMP, LS174T cells expressing endogenous DP receptor
Structures can show the parent of a compound that is named as a salt.
PROPERTY: pIC50
One number for each entry, as −log10 of the molar value.

Below are worked cases with known answers.
COc1ccc(CCNc2cc(-c3cnco3)nc(OC)n2)cc1 | 8.11
COc1ccc(CCNc2cc(-c3ccc4[nH]cnc4c3)nc(OC)n2)cc1 | 8.57

Answer for every listed entry: what is its pIC50? The entries follow.
1. COc1nc(NCCc2ccc(OC(F)(F)F)cc2)cc(-c2cccc(N)c2)n1
2. COc1nc(NCCc2ccc(Cl)cc2Cl)cc(-c2cccc(C(C)(C)c3nnn[nH]3)c2)n1 [Example 47, hydrochloride]

A)
1: 8.02; 2: 9.40
